B1: HESX1 (parent)
chain: QKKDCVPLMKPHRPWADTCSSSGK

Variants of: B1
Assay: protein stability index of a GFP-peptide fusion (GPS, HEK-293T) (PSI 1-6); higher = more stable;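 further: lentivirally expressed fusions sorted by FACS into six bins by GFP to DsRed ratio, PSI derived from sequencing read proportions per bin multiplied by bin number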
Settings: c terminus: a fixed tail appended
METRIC: protein stability index

For orientation, consider the following solved cases.
- MUTANT: "C5N"
  METRIC: "protein stability index"
  DATA VALUE: 3.06
- MUTANT: "P14L"
  METRIC: "protein stability index"
  DATA VALUE: 3.06
- MUTANT: "M9S"
  METRIC: "protein stability index"
  DATA VALUE: 2.93

Moving on to another variant below.
Exercise: Quick check: protein stability index of K3I ?
Solution: 3.01

Just for reference, the supplement of paper PMC10567573 is where these values come from.
